Where do the numbers come from? From patent US20250282728A1.

Could you please report measured pEC50 for the items listed next?
target: rat GPR55 (Rattus norvegicus); construct: expressed in transfected cells; host or cells: HEK293 (human embryonic kidney) cells; experiment: Ca2+ mobilization assay (FLIPR, Calcium5 dye), rat GPR55; assay type: cell-based; conditions: HEK293 cells co-expressing PK-tagged rat GPR55 and EA-tagged beta-arrestin; intracellular calcium increase
Sequence (F1MAK4 1-319): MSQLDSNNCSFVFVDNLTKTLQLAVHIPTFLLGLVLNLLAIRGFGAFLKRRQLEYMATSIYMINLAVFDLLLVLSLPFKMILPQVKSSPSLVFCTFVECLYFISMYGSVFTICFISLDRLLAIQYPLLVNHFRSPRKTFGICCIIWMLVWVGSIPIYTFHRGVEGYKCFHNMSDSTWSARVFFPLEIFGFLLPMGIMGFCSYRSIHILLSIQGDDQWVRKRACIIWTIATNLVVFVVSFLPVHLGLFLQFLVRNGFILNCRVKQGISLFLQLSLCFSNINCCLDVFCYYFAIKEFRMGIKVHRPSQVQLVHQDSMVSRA
pEC50: −log10 of the molar value.

Reported pEC50 for rat GPR55 (Rattus norvegicus), given CCc1cncc(-c2ccc(N[C@H](C)c3cccc(F)c3)nc2)c1 [Example 48] ?
≥ 6.00

Reported pEC50 for rat GPR55 (Rattus norvegicus), given C[C@@H](Nc1ncc(-c2cncc(CO)c2)nn1)c1ccc(F)cc1 [Example 41] ?
≥ 6.00

Reported pEC50 for rat GPR55 (Rattus norvegicus), given C[C@@H](Nc1ncc(-c2ccc3oc(=O)n(C)c3c2)nn1)c1ccc(Cl)cc1 [Example 73] ?
≥ 5.30

Reported pEC50 for rat GPR55 (Rattus norvegicus), given Cc1cncc(-c2ccc(N[C@H](C)c3ccc(F)c(F)c3)nc2)c1 [Example 2] ?
≥ 5.30

Reported pEC50 for rat GPR55 (Rattus norvegicus), given C[C@@H](Nc1ncc(-c2ccc3oc(=O)n(C)c3c2)cn1)c1ccc(F)cc1 [Example 63] ?
≥ 6.00

Reported pEC50 for rat GPR55 (Rattus norvegicus), given CC(Nc1ncc(-c2ccc3oc(=O)n(C)c3c2)nn1)c1ccc(C#N)cc1 (centres unmarked) [Example 74] ?
≥ 5.30

Reported pEC50 for rat GPR55 (Rattus norvegicus), given C[C@@H](Nc1ncc(-c2cncc(C=C(F)F)c2)nn1)c1ccc(F)cc1 [Example 40] ?
≥ 5.30

Reported pEC50 for rat GPR55 (Rattus norvegicus), given C[C@@H](Nc1cnc(-c2cncc(CCO)c2)cn1)c1ccc(F)cc1 [Example 35] ?
≥ 5.30

Reported pEC50 for rat GPR55 (Rattus norvegicus), given C[C@@H](Nc1cnc(-c2cncc(OCC(F)(F)F)c2)cn1)c1ccc(F)cc1 [Example 42] ?
≥ 6.00

Reported pEC50 for rat GPR55 (Rattus norvegicus), given C[C@@H](Nc1ncc(-c2ccc3oc(=O)n(CCN(C)C)c3c2)nn1)c1ccc(F)cc1 [Example 71] ?
≥ 5.30

Reported pEC50 for rat GPR55 (Rattus norvegicus), given C[C@@H](Nc1cnc(-c2cnnc(CC(F)(F)F)c2)cn1)c1ccc(F)cc1 [Example 57] ?
≥ 5.30

Reported pEC50 for rat GPR55 (Rattus norvegicus), given CC(Nc1cc(F)c(-c2cncc(S(C)(=O)=O)c2)cn1)c1ccc(F)cc1 (single isomer, unassigned) [Example 29b] ?
≥ 5.30

Reported pEC50 for rat GPR55 (Rattus norvegicus), given C[C@@H](Nc1ccc(-c2cncc(S(C)(=O)=O)c2)cn1)c1ccc(F)cc1 [Example 7] ?
≥ 6.70

Reported pEC50 for rat GPR55 (Rattus norvegicus), given CS(=O)(=O)c1cncc(-c2ccc(NC3CCc4cc(F)ccc43)nc2)c1 (centres unmarked) [Example 38] ?
≥ 7.30

Reported pEC50 for rat GPR55 (Rattus norvegicus), given C[C@@H](Nc1cnc(-c2cncc(CC(F)(F)F)c2)nn1)c1ccc(F)cc1 [Example 56] ?
≥ 5.30

Reported pEC50 for rat GPR55 (Rattus norvegicus), given Cc1cncc(-c2ccc(N[C@H](C)c3ccc(F)cc3)nc2)c1 [Example 3] ?
≥ 7.30

Reported pEC50 for rat GPR55 (Rattus norvegicus), given C[C@@H](Nc1ncc(-c2ccc3oc(=O)n(C)c3c2)nn1)c1ccc(F)cc1 [Example 64] ?
≥ 6.70

---

Could you please report measured pEC50 for the items listed next?
target: human GPR55 (Homo sapiens, UniProt Q9Y2T6); experiment: Ca2+ mobilization assay (FLIPR, Calcium5 dye), human GPR55; conditions: HEK293 cells co-expressing PK-tagged human GPR55 and EA-tagged beta-arrestin; intracellular calcium increase
Sequence (Q9Y2T6 whole entry): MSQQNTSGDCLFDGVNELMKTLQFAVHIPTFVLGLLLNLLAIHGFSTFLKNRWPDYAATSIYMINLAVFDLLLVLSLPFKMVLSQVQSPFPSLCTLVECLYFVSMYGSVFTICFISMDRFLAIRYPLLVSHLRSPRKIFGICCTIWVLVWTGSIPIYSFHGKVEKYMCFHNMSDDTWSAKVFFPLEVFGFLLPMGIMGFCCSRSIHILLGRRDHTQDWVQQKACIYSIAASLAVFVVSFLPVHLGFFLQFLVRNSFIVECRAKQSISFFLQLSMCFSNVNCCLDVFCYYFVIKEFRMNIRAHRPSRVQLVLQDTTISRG
pEC50: −log10 of the molar value.

# get_value(readout='pEC50', item= C[C@@H](Nc1cnc(-c2cncc(OC(F)F)c2)cn1)c1ccc(F)cc1 )
≥ 6.00

# get_value(readout='pEC50', item= C[C@@H](Nc1cnc(-c2cncc(CCF)c2)cn1)c1ccc(F)cc1 )
≥ 7.30

# get_value(readout='pEC50', item= C[C@@H](Nc1cnc(-c2cnc3oc(=O)n(C)c3c2)cn1)c1ccc(F)cc1 )
≥ 6.00

# get_value(readout='pEC50', item= C[C@@H](Nc1cnc(-c2cncc(CC(F)F)c2)cn1)c1ccc(F)cc1 )
≥ 7.30

# get_value(readout='pEC50', item= CC(O)c1cncc(-c2ccc(N[C@H](C)c3ccc(F)cc3)nc2)c1 (single isomer, unassigned) [Example 16a] )
≥ 6.00

---

Biological target: human GPR55 (Homo sapiens)
Assay: Ca2+ mobilization assay (FLIPR, Calcium5 dye), human GPR55
Conditions: HEK293 cells co-expressing PK-tagged human GPR55 and EA-tagged beta-arrestin; intracellular calcium increase
Method: This cell-based assay measures the ability of compounds to activate the GPR55 receptor by measuring changes in intracellular calcium levels. […] Dilution series of the compounds in assay buffer were added to the cells in duplicate wells and compound-mediated real-time increases in intracellular calcium concentration were recorded as increased fluorescence using the Molecular Devices FLIPR instrument. […]
property label: EC50

# get_value(readout='EC50', item= C#Cc1cncc(-c2ccc(N[C@H](C)c3ccc(F)cc3)nc2)c1 )
≤ 50 nM

# get_value(readout='EC50', item= C[C@@H](Nc1ncc(-c2ccc3oc(=O)n(C)c3c2)nn1)c1ccc(F)c(F)c1 )
≤ 1000 nM

# get_value(readout='EC50', item= C[C@@H](Nc1ncc(-c2ccc3oc(=O)n(C)c3c2)nn1)c1ccc(Cl)cc1 )
≤ 1000 nM

# get_value(readout='EC50', item= C[C@@H](Nc1ccc(-c2ccc3c(c2)N(C)C(=O)C3(F)F)cn1)c1ccc(F)cc1 )
≤ 5000 nM

# get_value(readout='EC50', item= C[C@@H](Nc1cnc(-c2cncc(S(C)(=O)=O)c2)cn1)c1ccc(F)cc1 )
≤ 50 nM

# get_value(readout='EC50', item= C[C@@H](Nc1ncc(-c2ccc3oc(=O)n(C)c3c2)cn1)c1ccc(F)cc1 )
≤ 1000 nM

# get_value(readout='EC50', item= CC(Nc1ncc(-c2ccc3oc(=O)n(C)c3c2)nn1)c1ccc(Cl)c(Cl)c1 (single isomer, unassigned) [Example 78a] )
≤ 1000 nM
